molecular target: phosphorylated FGFR3 (SEQ ID NO: 5, amino acids 449 to 759) (Homo sapiens (Human))
Sequence (P22607 449-759): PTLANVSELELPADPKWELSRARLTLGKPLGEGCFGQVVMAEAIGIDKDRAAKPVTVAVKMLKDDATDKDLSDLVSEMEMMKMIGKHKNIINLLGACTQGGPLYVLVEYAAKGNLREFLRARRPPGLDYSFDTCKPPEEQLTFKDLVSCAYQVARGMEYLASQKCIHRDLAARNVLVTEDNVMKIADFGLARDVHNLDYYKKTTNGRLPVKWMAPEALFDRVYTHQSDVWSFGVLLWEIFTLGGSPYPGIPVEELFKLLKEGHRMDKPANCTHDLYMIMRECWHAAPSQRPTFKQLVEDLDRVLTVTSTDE
pIC50: −log10 of the molar value.
measuredParameter: pIC50

compound: C=CC(=O)N1CC(CN2CCC(n3cc(-c4cc(OC)c5c(C#N)cnn5c4)cn3)CC2)C1
valueMeasured: 8.15
--
compound: COc1cc(-c2cnn(C3CCN(CC4(OC)CN(C(=O)/C=C/CN(C)C)C4)CC3)c2C)cn2ncc(C#N)c12
valueMeasured: 8.52
--
compound: C=CC(=O)N[C@H]1C[C@@H](C(=O)N2CC(n3cc(-c4cc(OC)c5c(C#N)cnn5c4)cn3)C2)C1
valueMeasured: 7.66
--
compound: C=CC(=O)N1CC(CN2CCC(n3ncc(-c4cc(OC)c5c(C#N)cnn5c4)c3C)CC2)C1
valueMeasured: 8.10
--
compound: C=CC(=O)N1CC(CN2CCC(n3ncc(-c4cc(OC)c5c(Cl)cnn5c4)c3C)CC2)C1(C)C (stereo not shown)
valueMeasured: 7.48
--
compound: C=CC(=O)N(C)c1ccc(C(=O)N2CCC(n3cc(-c4cc(OC)c5c(C#N)cnn5c4)cn3)CC2)cc1
valueMeasured: 8.10
--
compound: C=CC(=O)N1CC2(CCN(C(=O)N3CCC(n4cc(-c5cc(OC)c6c(C#N)cnn6c5)cn4)CC3)C2)C1
valueMeasured: 8.10

---

Target: recombinant human FGFR3 (amino acids R397-T806) (Homo sapiens (Human), UniProt P22607)
Sequence (P22607 397-806): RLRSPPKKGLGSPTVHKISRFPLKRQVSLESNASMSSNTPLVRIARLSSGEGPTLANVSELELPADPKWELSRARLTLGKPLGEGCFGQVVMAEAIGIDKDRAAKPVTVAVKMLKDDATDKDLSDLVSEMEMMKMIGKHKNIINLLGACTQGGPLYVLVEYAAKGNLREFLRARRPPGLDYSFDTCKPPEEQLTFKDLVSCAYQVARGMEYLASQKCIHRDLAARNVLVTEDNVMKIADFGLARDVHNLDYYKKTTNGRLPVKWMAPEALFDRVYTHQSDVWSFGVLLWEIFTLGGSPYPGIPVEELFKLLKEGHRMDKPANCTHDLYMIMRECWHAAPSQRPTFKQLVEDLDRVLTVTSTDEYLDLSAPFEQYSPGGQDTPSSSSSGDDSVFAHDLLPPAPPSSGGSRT
Experiment: FGFR3 enzyme activity assay (LanthaScreen TR-FRET)
Details: 25 μM ATP, 10 min incubation at 22° C., average of multiple determinations if made, read-out: FGFR3 Enz FRET IC50
Method: FGFR3 kinase activity was measured by the Invitrogen LanthaScreen™ Assay technology which directly measures the amount of substrate phosphorylation by TR-FRET using a fluorescently-labeled peptide and Europium-labeled antibody. […] After an additional 60 minute incubation at 22° C., the reaction was measured using a PerkinElmer EnVision multimode plate reader via TR-FRET dual wavelength detection, and the percent of control (POC) calculated using a ratiometric emission factor. […]
Define the label as TRUE when IC50 is strictly less than 20 nM and as FALSE in all remaining cases.

compound: C=CC(=O)N1CC[C@@H](C(=O)N2CCC(n3cc(-c4cc(OC)c5c(C#N)cnn5c4)cn3)CC2)C1 [Example 29]
measuredTarget: recombinant human FGFR3 (amino acids R397-T806) (Homo sapiens (Human), UniProt P22607)
qualitativeLabel: TRUE

compound: C=CC(=O)Nc1cccc(C(=O)N2CC[C@H](n3cc(-c4cc(OC)c5c(C#N)cnn5c4)cn3)C2)c1 [Example 67]
measuredTarget: recombinant human FGFR3 (amino acids R397-T806) (Homo sapiens (Human), UniProt P22607)
qualitativeLabel: TRUE

compound: C=CC(=O)N1CC(O)(C(=O)N2CCC(n3ncc(-c4cc(OC)c5c(Cl)cnn5c4)c3C)CC2)C1 [Example 172]
measuredTarget: recombinant human FGFR3 (amino acids R397-T806) (Homo sapiens (Human), UniProt P22607)
qualitativeLabel: FALSE

compound: C=CC(=O)N1CC[C@@H](C(=O)N2CC[C@@H](n3cc(-c4cc(OC)c5c(C#N)cnn5c4)cn3)C2)C1 [Example 58]
measuredTarget: recombinant human FGFR3 (amino acids R397-T806) (Homo sapiens (Human), UniProt P22607)
qualitativeLabel: TRUE

compound: C=CC(=O)N1CCC(Oc2cccc(-n3cc(-c4cc(OC)c5c(C#N)cnn5c4)cn3)c2)CC1 [Example 26]
measuredTarget: recombinant human FGFR3 (amino acids R397-T806) (Homo sapiens (Human), UniProt P22607)
qualitativeLabel: FALSE

compound: C=CC(=O)NC1CCN(C(=O)c2ccc(-c3cc(OC)c4c(C#N)cnn4c3)cc2)CC1 [Example 165]
measuredTarget: recombinant human FGFR3 (amino acids R397-T806) (Homo sapiens (Human), UniProt P22607)
qualitativeLabel: TRUE

compound: C=CC(=O)N1CC(OC)(C(=O)N2CCC(n3ncc(-c4cc(OC)c5c(C#N)cnn5c4)c3C)CC2)C1 [Example 88]
measuredTarget: recombinant human FGFR3 (amino acids R397-T806) (Homo sapiens (Human), UniProt P22607)
qualitativeLabel: FALSE

compound: COc1cc(-c2cnc(N3CCN(C(=O)C4(F)CN(C(=O)/C=C/CN(C)C)C4)CC3)cc2C)cn2ncc(C#N)c12 [Example 169]
measuredTarget: recombinant human FGFR3 (amino acids R397-T806) (Homo sapiens (Human), UniProt P22607)
qualitativeLabel: FALSE

compound: C=CC(=O)N1CC(C(=O)N2CCN(c3cnc(-c4cc(OC)c5c(C#N)cnn5c4)cn3)CC2)C1 [Example 116]
measuredTarget: recombinant human FGFR3 (amino acids R397-T806) (Homo sapiens (Human), UniProt P22607)
qualitativeLabel: FALSE

compound: C=CS(=O)(=O)N1CC[C@H](C(=O)N2CCC(n3cc(-c4cc(OC)c5c(C#N)cnn5c4)cn3)CC2)C1 [Example 189]
measuredTarget: recombinant human FGFR3 (amino acids R397-T806) (Homo sapiens (Human), UniProt P22607)
qualitativeLabel: TRUE

compound: C=CC(=O)Nc1ccc(CN2CCC(n3cc(-c4cc(OC)c5c(C#N)cnn5c4)cn3)CC2)cc1 [Example 9]
measuredTarget: recombinant human FGFR3 (amino acids R397-T806) (Homo sapiens (Human), UniProt P22607)
qualitativeLabel: TRUE

compound: C=CC(=O)N1CCC(NC(=O)c2ccc(-c3cc(OC)c4c(C#N)cnn4c3)cc2)CC1 [Example 166]
measuredTarget: recombinant human FGFR3 (amino acids R397-T806) (Homo sapiens (Human), UniProt P22607)
qualitativeLabel: TRUE

compound: C=CC(=O)N1CC(CN2CCC(n3ncc(-c4cc(OC)c5c(C#N)cnn5c4)c3C)CC2)C1(C)C (stereo not shown) [Example 151]
measuredTarget: recombinant human FGFR3 (amino acids R397-T806) (Homo sapiens (Human), UniProt P22607)
qualitativeLabel: TRUE

compound: COc1cc(-c2cnn(C3CCN(C(=O)C4CN(C(=O)/C=C/CBr)C4)CC3)c2)cn2ncc(C#N)c12 [Example 180]
measuredTarget: recombinant human FGFR3 (amino acids R397-T806) (Homo sapiens (Human), UniProt P22607)
qualitativeLabel: TRUE

compound: C=CC(=O)Nc1ccc(C(=O)N2CC[C@H](n3cc(-c4cc(OC)c5c(C#N)cnn5c4)cn3)C2)c(OC)c1 [Example 69]
measuredTarget: recombinant human FGFR3 (amino acids R397-T806) (Homo sapiens (Human), UniProt P22607)
qualitativeLabel: TRUE

compound: C=CC(=O)N1C2CC1CN(C(=O)N1CCC(n3cc(-c4cc(OC)c5c(C#N)cnn5c4)cn3)CC1)C2 [Example 1]
measuredTarget: recombinant human FGFR3 (amino acids R397-T806) (Homo sapiens (Human), UniProt P22607)
qualitativeLabel: TRUE

compound: C=CC(=O)N1CC(C(=O)N2CCC(n3ncc(-c4cc(OC)c5c(C#N)cnn5c4)c3C)CC2)C1(C)C (stereo not shown) [Example 87]
measuredTarget: recombinant human FGFR3 (amino acids R397-T806) (Homo sapiens (Human), UniProt P22607)
qualitativeLabel: FALSE

compound: C=CC(=O)N1CC(C(=O)N2CCN(c3ncc(-c4cc(OC)c5c(C#N)cnn5c4)cc3C)CC2)C1 [Example 113]
measuredTarget: recombinant human FGFR3 (amino acids R397-T806) (Homo sapiens (Human), UniProt P22607)
qualitativeLabel: FALSE

compound: C=CC(=O)N1CCC[C@H](C(=O)N2CCC(n3cc(-c4cc(OC)c5c(C#N)cnn5c4)cn3)CC2)C1 [Example 16]
measuredTarget: recombinant human FGFR3 (amino acids R397-T806) (Homo sapiens (Human), UniProt P22607)
qualitativeLabel: TRUE

compound: C=CC(=O)N1CC(F)(C(=O)N2CCC(n3cc(-c4cc(OC)c5c(C#N)cnn5c4)cn3)CC2)C1 [Example 37]
measuredTarget: recombinant human FGFR3 (amino acids R397-T806) (Homo sapiens (Human), UniProt P22607)
qualitativeLabel: TRUE

compound: C=CC(=O)N1CC2(CCC(C(=O)N3CCC(n4cc(-c5cc(OC)c6c(C#N)cnn6c5)cn4)CC3)CC2)C1 [Example 21]
measuredTarget: recombinant human FGFR3 (amino acids R397-T806) (Homo sapiens (Human), UniProt P22607)
qualitativeLabel: TRUE

compound: C=CC(=O)N1CC[C@@H](C(=O)N2CCN(c3ccc(-c4cc(OC)c5c(C#N)cnn5c4)cn3)CC2)C1 [Example 110]
measuredTarget: recombinant human FGFR3 (amino acids R397-T806) (Homo sapiens (Human), UniProt P22607)
qualitativeLabel: TRUE

compound: C=CC(=O)N1CC(C(=O)N2CCN(c3ccc(-c4cc(OC)c5c(C#N)cnn5c4)cn3)CC2)C1 [Example 111]
measuredTarget: recombinant human FGFR3 (amino acids R397-T806) (Homo sapiens (Human), UniProt P22607)
qualitativeLabel: TRUE

compound: C=CC(=O)N1C[C@H]2CN(C(=O)N3CCC(n4cc(-c5cc(OC)c6c(C#N)cnn6c5)cn4)CC3)C[C@H]21 [Example 7]
measuredTarget: recombinant human FGFR3 (amino acids R397-T806) (Homo sapiens (Human), UniProt P22607)
qualitativeLabel: TRUE

compound: C=CC(=O)N1CC(CN2CCC(n3ncc(-c4cc(OC)c5c(C#N)cnn5c4)c3C)CC2)(OC)C1 [Example 91]
measuredTarget: recombinant human FGFR3 (amino acids R397-T806) (Homo sapiens (Human), UniProt P22607)
qualitativeLabel: TRUE

compound: C=CC(=O)N1CC(C)(C(=O)N2CCC(n3ncc(-c4cc(OC)c5c(C#N)cnn5c4)c3C)CC2)C1 [Example 86]
measuredTarget: recombinant human FGFR3 (amino acids R397-T806) (Homo sapiens (Human), UniProt P22607)
qualitativeLabel: TRUE

compound: C=CC(=O)N1CCC(C#N)(C(=O)N2CCC(n3cc(-c4cc(OC)c5c(C#N)cnn5c4)cn3)CC2)C1 (stereo not shown) [Example 31]
measuredTarget: recombinant human FGFR3 (amino acids R397-T806) (Homo sapiens (Human), UniProt P22607)
qualitativeLabel: TRUE

compound: C=CC(=O)N1CCC(n2cc(-c3cc(OC)c4c(C#N)cnn4c3)cn2)CC1 [Example 11]
measuredTarget: recombinant human FGFR3 (amino acids R397-T806) (Homo sapiens (Human), UniProt P22607)
qualitativeLabel: TRUE

These entries and their values trace back to patent US12180207B2.
